Biological target: T1, HA-tagged human ILT7 on CT-550 cells (human, UniProt P59901 24-499)
T1 construct: whole, on cells; CT-550 cells: CT-125 cells (2B4 murine T-cell hybridoma with mouse FcεRIγ and NFAT-GFP reporter) transduced with HA-tagged human ILT7; also called human ILT7-expressing cells; not shown: HA tag
T1 sequence (P59901 24-499): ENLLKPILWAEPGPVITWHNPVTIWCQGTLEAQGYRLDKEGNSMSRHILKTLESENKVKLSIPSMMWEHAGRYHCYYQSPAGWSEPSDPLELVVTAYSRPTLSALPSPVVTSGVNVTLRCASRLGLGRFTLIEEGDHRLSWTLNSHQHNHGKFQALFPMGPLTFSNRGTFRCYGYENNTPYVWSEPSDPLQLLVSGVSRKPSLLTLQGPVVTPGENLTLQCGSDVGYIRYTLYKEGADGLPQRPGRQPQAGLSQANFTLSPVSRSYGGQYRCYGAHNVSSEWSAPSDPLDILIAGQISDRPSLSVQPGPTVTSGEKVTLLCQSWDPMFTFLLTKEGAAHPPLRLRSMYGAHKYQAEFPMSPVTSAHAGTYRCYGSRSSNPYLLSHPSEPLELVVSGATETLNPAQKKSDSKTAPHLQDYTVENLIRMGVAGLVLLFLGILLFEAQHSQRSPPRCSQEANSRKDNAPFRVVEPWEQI
Test: flow cytometry on CT-550 cells (human ILT7), top panel, table 'Ec50 (pM)'
measure-name: pEC50
One number for each entry, as −log10 of the molar value.

Illustrative cases are given below, each with its answer.
1. ILT70080.5 (antibody, V domains shown, Engineered (germlined) variant of ILT70080, tested as IgG1) VH: QVQLVQSGAEVKKPGSSVKVSCKASGDSFRNYAVSWVRQAPGQGLEWMGAMMPSFGTREHSQQFQGRVTLTADESTSTAYMELSSLRSEDTAVYYCAGSRDYNAYHFWTGPPDFWGRGTLVTVSS VL: SYVLTQPPSVSVAPGKTARITCGGDSVGSTSVHWYQQKPGQAPVMVMFYNSDRPSGIPERFSGSNSGNTATLTISRVEAGDEADYYCQVWDTSSDHPEFGGGTKLTVL    9.30
2. ILT70080.1 (antibody, V domains shown, Engineered (germlined) variant of ILT70080, tested as IgG1) VH: QVQLVQSGAEVKKPGSSVKVSCKASGDSFRNYAVSWVRQAPGQGLEWMGAMMPSFGTREHSQQFQGRVTLTADESTSTAYMELSSLRSEDTAVYYCAGSRDYNAYHFWTGPPDFWGRGTLVTVSS VL: SYVLTQPPSVSVAPGKTARITCGGDSVGSTSVHWYQQKPGQAPVMVMFYNSDRPSGIPERFSGSISGNTATLTISRVEAGDEADYYCQVWDTSSDHPEFGGGTKLTVL    9.70

Now for the binder whose pEC50 we want.
Prompt: Return reported pEC50. Input binder: ILT70080.7 (antibody, V domains shown, Engineered (germlined) variant of ILT70080, tested as IgG1) VH: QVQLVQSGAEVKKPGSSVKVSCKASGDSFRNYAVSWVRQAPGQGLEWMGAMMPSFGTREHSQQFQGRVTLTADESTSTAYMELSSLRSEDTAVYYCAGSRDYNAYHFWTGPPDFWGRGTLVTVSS VL: SYVLTQPPSVSVAPGKTARITCGGDSVGSTSVHWYQQKPGQAPVLVMFYNSDRPSGIPERFSGSNSGNTATLTISRVEAGDEADYYCQVWDTSSDHPEFGGGTKLTVL
Completion: 9.64
